# systemTested: Melanocortin receptor 4 (Homo sapiens)
# experimentNotes: Agonist activity at human MC4R expressed in CHO cells after 4 hrs by luciferase reporter gene assay relative to alpha-melanocyte stimulating hormone
# Type: functional, cell-based
assayMetric: Activity
One number for each entry.

Please review the entries below; each comes with its answer.
{"columns": ["molecule", "Activity"],
 "data": [
  ["O=C1C(Cc2n[nH]c3ccccc23)C(=O)N(c2ccccc2)C=CN1CC(=O)N1CCCCc2ccccc21 (racemic)", 17],
  ["COc1ccc(N(C(=O)CN2C=CN(c3cccnc3)C(=O)C(Cc3n[nH]c4cc(F)ccc34)C2=O)C(C)C)cc1 (racemic)", 31],
  ["COC1(Cc2n[nH]c3ccccc23)C(=O)N(CC(=O)N(c2ccc(F)cc2)C(C)C)C=CN(c2ccccc2)C1=O (racemic)", 52]
]}

Next molecule, Activity to be filled in.
Query: Given the molecule CC(C)N(C(=O)CN1C=CN(c2ccccc2)C(=O)C(Cc2n[nH]c3cc(F)ccc23)C1=O)c1ccc(F)cc1 (racemic) , what is its reported Activity?
Response: 19

* * *

# systemTested: Melanocortin receptor 4 (Homo sapiens, UniProt P32245)
# Sequence (P32245 whole entry): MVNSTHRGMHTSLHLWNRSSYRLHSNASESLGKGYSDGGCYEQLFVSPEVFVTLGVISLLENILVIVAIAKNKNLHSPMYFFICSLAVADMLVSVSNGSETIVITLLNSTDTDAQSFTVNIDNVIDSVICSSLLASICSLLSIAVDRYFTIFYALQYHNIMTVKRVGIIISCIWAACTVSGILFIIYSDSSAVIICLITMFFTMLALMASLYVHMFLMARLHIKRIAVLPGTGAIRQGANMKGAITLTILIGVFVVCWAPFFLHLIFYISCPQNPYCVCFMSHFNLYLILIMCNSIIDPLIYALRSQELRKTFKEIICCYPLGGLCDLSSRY
# experimentNotes: Agonist activity at human MC4R expressed in CHO cells after 4 hrs by luciferase reporter gene assay relative to alpha-melanocyte stimulating hormone
# Format: functional, cell-based
Mark fulfilled for reported Activity of 30 or greater; mark not fulfilled for anything smaller.

Examples from the recorded data:
{"columns": ["molecule", "qualitativeLabel"],
 "data": [
  ["O=C1[C@@H](Cc2n[nH]c3ccccc23)C(=O)N(c2ccccc2)C=CN1CC(=O)N1CCCCc2ccccc21", "not fulfilled"],
  ["CC(C)N(C(=O)CN1C=CN(c2ccccc2)C(=O)[C@H](Cc2n[nH]c3cc(F)ccc23)C1=O)c1ccccc1", "not fulfilled"],
  ["O=C1[C@H](Cc2n[nH]c3ccccc23)C(=O)N(c2ccccc2)C=CN1CC(=O)N1CCCCc2ccccc21", "not fulfilled"],
  ["COc1ccc(N(C(=O)CN2C=CN(c3ccccc3)C(=O)[C@H](Cc3n[nH]c4ccccc34)C2=O)C(C)C)cc1", "fulfilled"]
]}

Query: I'd appreciate it if you could say whether COc1ccc(N(C(=O)CN2C=CN(c3ccccc3)C(=O)C(Cc3cc[nH]n3)(Cc3n[nH]c4ccccc34)C2=O)C(C)C)cc1 (racemic) has Activity at least equal to 30.
Response: not fulfilled

Query: // inclusive: Activity at least 30? input: CC(C)N(C(=O)CN1C=CN(c2ccccc2)C(=O)C(Cc2n[nH]c3ccccc23)C1=O)c1ccc(OC(F)(F)F)cc1 (racemic)
Response: fulfilled

* * *

# experimentNotes: Cmax in Sprague-Dawley rat at 10 mg/kg, po
# Assay type: ADME, organism-based
# Design: dose 10 mg/kg, route oral
# experimentalContext: in vivo
assayMetric: Cmax (ng/mL)
Numbers only, in ng/mL.

Query: Form field: reported Cmax of COc1ccc(N(C(=O)CN2C=CN(c3ccccc3)C(=O)[C@H](Cc3n[nH]c4ccccc34)C2=O)C(C)C)cc1
Response: 123

* * *

Kindly supply the reported Activity values for the records listed here.
# systemTested: Melanocyte-stimulating hormone receptor (Homo sapiens, UniProt Q01726)
# Sequence (Q01726 whole entry, looked up): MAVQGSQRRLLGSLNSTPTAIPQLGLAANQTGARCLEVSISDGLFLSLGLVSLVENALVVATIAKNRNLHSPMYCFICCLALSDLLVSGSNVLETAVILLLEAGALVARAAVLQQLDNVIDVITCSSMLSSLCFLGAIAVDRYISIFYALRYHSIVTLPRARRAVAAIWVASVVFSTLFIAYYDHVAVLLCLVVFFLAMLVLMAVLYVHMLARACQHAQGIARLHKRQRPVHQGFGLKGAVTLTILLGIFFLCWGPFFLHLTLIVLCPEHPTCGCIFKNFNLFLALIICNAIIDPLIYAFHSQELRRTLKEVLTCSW
# experimentNotes: Agonist activity at human MC1R expressed in CHO cells after 4 hrs by luciferase reporter gene assay relative to alpha-melanocyte stimulating hormone
# Format: functional, cell-based
# Set-up: concentration or dose not given beside the values
Numbers only, in %.

Study these solved cases before continuing.
{"columns": ["molecule", "systemTested", "Activity / %"],
 "data": [
  ["COc1ccc(N(C(=O)CN2C=CN(c3cccnc3)C(=O)C(Cc3n[nH]c4ccccc34)C2=O)C(C)C)cc1 (racemic)", "Melanocyte-stimulating hormone receptor (Homo sapiens, UniProt Q01726)", 60],
  ["COc1ccc(N(C(=O)CN2C=CN(c3ccccc3)C(=O)C(Cc3n[nH]c4cc(F)ccc34)C2=O)C(C)C)cc1 (racemic)", "Melanocyte-stimulating hormone receptor (Homo sapiens, UniProt Q01726)", 83],
  ["CC(C)N(C(=O)CN1C=CN(c2ccccc2)C(=O)C(Cc2n[nH]c3ccccc23)C1=O)c1ccc(N2CCOCC2)cc1 (racemic)", "Melanocyte-stimulating hormone receptor (Homo sapiens, UniProt Q01726)", 22],
  ["CC(C)N(C(=O)CN1C=CN(c2ccccc2)C(=O)C(Cc2n[nH]c3ccccc23)C1=O)c1ccc(O)cc1 (racemic)", "Melanocyte-stimulating hormone receptor (Homo sapiens, UniProt Q01726)", 54],
  ["O=C1[C@H](Cc2n[nH]c3ccccc23)C(=O)N(c2ccccc2)C=CN1CC(=O)N1CCCCc2ccccc21", "Melanocyte-stimulating hormone receptor (Homo sapiens, UniProt Q01726)", 76],
  ["CC(C)N(C(=O)CN1C=CN(C)C(=O)C(Cc2n[nH]c3cc(F)ccc23)C1=O)c1ccc(F)cc1 (racemic)", "Melanocyte-stimulating hormone receptor (Homo sapiens, UniProt Q01726)", 62]
]}

Could you report Activity for every entry in the following list?
1. CC(C)N(C(=O)CN1C=CN(c2ccccc2)C(=O)[C@H](Cc2n[nH]c3ccccc23)C1=O)c1ccccc1
2. CC(C)N(C(=O)CN1C=CN(c2ccccc2)C(=O)[C@H](Cc2n[nH]c3cc(F)ccc23)C1=O)c1ccccc1
3. O=C1C(Cc2n[nH]c3cc(F)ccc23)C(=O)N(c2ccccc2)C=CN1CC(=O)N1CCCCc2ccccc21 (racemic)

Response:
1: 54; 2: 79; 3: 61

Dear colleague, could you send me Activity for each of the items below? Thanks.
1. CC(C)N(C(=O)CN1C=CN(c2ccccc2)C(=O)C(Cc2n[nH]c3ccccc23)C1=O)c1ccc(O)cc1 (single isomer, unassigned; form 2)
2. CC(C)N(C(=O)CN1C=CN(c2ccccc2)C(=O)C(Cc2n[nH]c3cc(F)ccc23)C1=O)c1ccccc1 (racemic)

Response:
[16, 51]

* * *

# systemTested: Melanocortin receptor 4 (Homo sapiens, UniProt P32245)
# experimentNotes: Agonist activity at human MC4R expressed in CHO cells after 4 hrs by luciferase reporter gene assay
# Type: functional, cell-based
# experimentalContext: read-out: pEC50 (converted)
assayMetric: EC50 (nM)
Numbers only, in nM.

The examples below pair each entry with its known result.
{"columns": ["compound", "measuredResult"],
 "data": [
  ["CC(C)N(C(=O)CN1C=CN(c2ccccc2)C(=O)C(Cc2n[nH]c3ccccc23)C1=O)c1ccc(F)cc1 (racemic)", 282],
  ["COc1ccc(N(C(=O)CN2C=CN(c3ccccc3)C(=O)C(Cc3n[nH]c4ccccc34)C2=O)C(C)C)cc1 (racemic)", 708],
  ["CC(C)N(C(=O)CN1C=CN(c2ccccc2)C(=O)C(Cc2n[nH]c3cc(F)ccc23)C1=O)c1ccc(F)cc1 (racemic)", 178]
]}

List reported EC50 for each of these compounds:
1. CC(C)N(C(=O)CN1C=CN(c2ccccc2)C(=O)C(Cc2n[nH]c3ccccc23)C1=O)c1ccc(O)cc1 (single isomer, unassigned; form 1)
2. COc1ccc(N(C(=O)CN2C=CN(c3cccnc3)C(=O)C(Cc3n[nH]c4ccccc34)C2=O)C(C)C)cc1 (racemic)
3. CC(C)N(C(=O)CN1C=CN(c2ccccc2)C(=O)C(Cc2n[nH]c3cc(F)ccc23)C1=O)c1ccccc1 (racemic)
4. O=C1C(Cc2n[nH]c3cc(F)ccc23)C(=O)N(c2ccccc2)C=CN1CC(=O)N1CCCCc2ccccc21 (racemic)

Response:
[1000, 2880, 537, 437]
